Cited source: ChEMBL document CHEMBL4382198

experiment: Half life in rat at 5 mg/kg, po administered as single dose; format: ADME, organism-based; settings: in vivo
parameter: half-life
Respond with the figure and its unit, in that order.

half-life for `CCc1nc(C)cn2nc(-c3cc(=O)n4cc(C5CCN(C)CC5)cc(C)c4n3)cc12` is 19 h

---

assay: Half life in rat at 5.5 mg/kg, po administered as single dose; format: ADME, organism-based; conditions: in vivo
parameter: half-life (h)
Report the value in h with no unit label.

For this compound ( `Cc1cn2nc(-c3cc(=O)n4cc(N5CCNC6(CC6)C5)ccc4n3)cc(C)c2n1` ), measured half-life is 6.4

---

experiment: Efflux ratio of permeability in mouse 3T3 cells; type: ADME, cell-based, NIH3T3
parameter: efflux ratio
Please give the numeric answer without any surrounding text.

For reference, reported efflux ratio for CCc1nc(C)cn2nc(C3=CC(=O)N4C=C(C5CCNCC5)C=C(C)C4N3)cc12 (stereo unspecified) stands at 20

---

system: NIH3T3; assay: Phototoxicity in mouse 3T3 cells assessed as decrease in cell viability in presence of UV light by neutral red uptake assay; assay type: cell-based; settings: NIH3T3, light or radiation study
parameter: IC50 (nM)
# unit: nM | format: bare number

Lab note: measured IC50 of `CCc1nc(C)cn2nc(-c3cc(=O)n4cc(C5CCN(C)CC5)cc(C)c4n3)cc12` was 330

---

experiment: Oral bioavailability in rat at 5.5 mg/kg administered as single dose; type: ADME, organism-based; details: in vivo
parameter: bioavailability (%)
Give the value in % but do not write % after it.

Summary for this compound, `Cc1cn2nc(-c3cc(=O)n4cc(N5CCNC6(CC6)C5)ccc4n3)cc(C)c2n1` : bioavailability is 100

---

test: Half life in cynomolgus monkey at 0.5 mg/kg, po administered as single dose; assay type: ADME, organism-based, Macaca fascicularis; conditions: in vivo
parameter: half-life (h)
The reply should contain only the number, in h.

According to the records, this compound `Cc1cn2nc(-c3cc(=O)n4cc(N5CCNC6(CC6)C5)ccc4n3)cc(C)c2n1` displays half-life of 5.4

---

test: Half life in cynomolgus monkey at 1.3 mg/kg, po administered as single dose; format: ADME, organism-based, Macaca fascicularis; conditions: in vivo
parameter: half-life (h)
Only the number, expressed in h, is required.

Documented half-life of `CCc1nc(C)cn2nc(-c3cc(=O)n4cc(C5CCN(C)CC5)cc(C)c4n3)cc12` : 42

---

assay: Volume of distribution at steady state in rat at 1.9 mg/kg, iv administered as single dose; type: ADME, organism-based; conditions: in vivo, read-out: Vdss
parameter: Vd (L/kg)
The response must be a number in L/kg with no trailing unit.

Reported Vd for `Cc1cn2nc(-c3cc(=O)n4cc(N5CCNC6(CC6)C5)ccc4n3)cc(C)c2n1` was 3.1

---

assay: Lipophilicity, log D of the compound at pH 7.4; assay type: physicochemical; details: buffer
parameter: logD
A bare number is all that is needed in reply.

Kindly note the recorded logD for `CCc1nc(C)cn2nc(-c3cc(=O)n4cc(C5CCN(C)CC5)cc(C)c4n3)cc12` , which is 2.3

Quick note, logD for `Cc1cn2nc(-c3cc(=O)n4cc(N5CCNC6(CC6)C5)ccc4n3)cc(C)c2n1` landed at 2.5
